All values here come from patent US11897862B2.

Target: IKZF2 (Homo sapiens, UniProt Q96SW2+Q9UKS7)
Sequence (Q9UKS7 1-500 isoform Q9UKS7-2): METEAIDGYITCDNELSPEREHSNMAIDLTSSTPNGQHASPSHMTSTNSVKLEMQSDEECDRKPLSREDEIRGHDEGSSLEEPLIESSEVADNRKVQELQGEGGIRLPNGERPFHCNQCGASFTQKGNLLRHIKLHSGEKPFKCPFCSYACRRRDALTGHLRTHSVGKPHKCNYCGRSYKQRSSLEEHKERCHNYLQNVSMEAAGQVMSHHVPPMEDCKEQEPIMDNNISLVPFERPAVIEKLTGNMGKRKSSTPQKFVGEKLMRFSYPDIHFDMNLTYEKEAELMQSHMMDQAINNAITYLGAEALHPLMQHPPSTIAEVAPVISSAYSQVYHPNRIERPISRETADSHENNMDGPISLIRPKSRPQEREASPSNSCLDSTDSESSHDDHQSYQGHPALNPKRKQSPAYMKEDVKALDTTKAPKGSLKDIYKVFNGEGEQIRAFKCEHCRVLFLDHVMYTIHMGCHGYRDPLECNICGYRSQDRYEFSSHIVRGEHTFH
Sequence (Q96SW2 whole entry): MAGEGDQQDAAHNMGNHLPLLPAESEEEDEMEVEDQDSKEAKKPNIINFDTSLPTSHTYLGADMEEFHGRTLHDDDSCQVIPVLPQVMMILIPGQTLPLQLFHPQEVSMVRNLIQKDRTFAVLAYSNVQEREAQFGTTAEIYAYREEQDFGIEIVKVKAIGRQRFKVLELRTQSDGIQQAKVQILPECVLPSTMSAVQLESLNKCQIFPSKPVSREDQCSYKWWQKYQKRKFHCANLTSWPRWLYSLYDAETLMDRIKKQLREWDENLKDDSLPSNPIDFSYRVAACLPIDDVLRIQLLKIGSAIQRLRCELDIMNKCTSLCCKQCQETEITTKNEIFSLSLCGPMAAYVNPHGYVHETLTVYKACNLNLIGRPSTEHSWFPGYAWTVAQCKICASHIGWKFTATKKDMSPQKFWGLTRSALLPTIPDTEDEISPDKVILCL
Sequence (Q16531 whole entry partner): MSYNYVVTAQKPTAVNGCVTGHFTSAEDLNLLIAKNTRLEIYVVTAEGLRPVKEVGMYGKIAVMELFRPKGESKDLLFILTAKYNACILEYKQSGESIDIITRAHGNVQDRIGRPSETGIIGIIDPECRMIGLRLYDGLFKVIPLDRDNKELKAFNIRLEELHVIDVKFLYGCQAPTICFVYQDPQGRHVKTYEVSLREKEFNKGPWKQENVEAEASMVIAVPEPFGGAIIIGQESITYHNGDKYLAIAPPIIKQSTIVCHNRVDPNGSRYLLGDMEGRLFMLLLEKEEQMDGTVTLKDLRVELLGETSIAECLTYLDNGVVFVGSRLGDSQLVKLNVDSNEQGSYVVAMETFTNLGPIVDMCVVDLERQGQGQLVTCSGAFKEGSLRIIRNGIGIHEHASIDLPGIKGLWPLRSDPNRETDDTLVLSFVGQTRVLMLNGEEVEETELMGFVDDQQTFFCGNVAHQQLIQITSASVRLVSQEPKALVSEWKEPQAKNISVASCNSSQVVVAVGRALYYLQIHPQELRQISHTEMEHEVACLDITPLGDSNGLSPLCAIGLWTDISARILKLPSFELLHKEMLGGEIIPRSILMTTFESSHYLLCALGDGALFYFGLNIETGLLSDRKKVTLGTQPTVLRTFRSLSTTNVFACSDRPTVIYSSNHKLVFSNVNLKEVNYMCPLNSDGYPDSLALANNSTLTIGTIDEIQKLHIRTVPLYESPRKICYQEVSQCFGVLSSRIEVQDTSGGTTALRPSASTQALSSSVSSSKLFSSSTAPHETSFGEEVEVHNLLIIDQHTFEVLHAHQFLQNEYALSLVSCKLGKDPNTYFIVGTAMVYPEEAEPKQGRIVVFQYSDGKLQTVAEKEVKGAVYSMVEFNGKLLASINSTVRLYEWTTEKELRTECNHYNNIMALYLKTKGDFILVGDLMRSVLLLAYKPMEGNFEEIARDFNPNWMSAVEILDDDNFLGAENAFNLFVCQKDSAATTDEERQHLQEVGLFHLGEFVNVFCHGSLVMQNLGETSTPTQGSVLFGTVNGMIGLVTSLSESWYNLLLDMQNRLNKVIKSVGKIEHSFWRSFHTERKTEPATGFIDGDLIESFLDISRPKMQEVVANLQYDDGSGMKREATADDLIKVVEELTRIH
Test: HEK293 HiBiT in vitro degradation of IKZF2
Format: cell-based
Set-up: expressed in transfected cells
Conditions: HEK293 HiBiT; maximum degradation at the highest concentration tested
# maps each entry to its IKZF2 Dmax
Hi! Could you send only the number? It should be in %, unit omitted.

Please review the entries below; each comes with its answer.
[[record]]
compound = "O=C1CCC(N2Cc3cc(C[C@H]4CCCC[C@@H]4NC4CC5CCC(C4)O5)ccc3C2=O)C(=O)N1 (stereo partly shown)"
measured_attribute = "IKZF2 Dmax"
test_value = 97

[[record]]
compound = "CC(N[C@H]1CCCC[C@@H]1Cc1ccc2c(c1)CN(C1CCC(=O)NC1=O)C2=O)C1CCCO1 (single isomer, unassigned)"
measured_attribute = "IKZF2 Dmax"
test_value = 84

[[record]]
compound = "CC(C)OC1CCC(N[C@H]2CCCO[C@@H]2Cc2ccc3c(c2F)CN(C2CCC(=O)NC2=O)C3=O)CC1 (single isomer, unassigned)"
measured_attribute = "IKZF2 Dmax"
test_value = 94

[[record]]
compound = "O=C1CCC(N2Cc3cc(C[C@H]4CCCC[C@@H]4NC4CCC(C(F)F)CC4)ccc3C2=O)C(=O)N1 (stereo partly shown)"
measured_attribute = "IKZF2 Dmax"
test_value = 97

[[record]]
compound = "CC1(C)CC(N[C@H]2CCCO[C@@H]2Cc2ccc3c(c2F)CN(C2CCC(=O)NC2=O)C3=O)CCO1 (stereo partly shown)"
measured_attribute = "IKZF2 Dmax"
test_value = 96


Lab note: O=C1CCC(N2Cc3cc(C[C@H]4CCCC[C@@H]4NC4CCCOC4)ccc3C2=O)C(=O)N1 (single isomer, unassigned) gave IKZF2 Dmax of 96

response.value for CC1(C)CCC(N[C@H]2CCCO[C@@H]2Cc2ccc3c(c2F)CN(C2CCC(=O)NC2=O)C3=O)C1 (single isomer, unassigned) (field: IKZF2 Dmax) = 96

compound O=C1CCC(N2Cc3c(ccc(C[C@H]4OCCC[C@@H]4NC4CCC(C(F)F)CC4)c3F)C2=O)C(=O)N1 (single isomer, unassigned) , IKZF2 Dmax observed: 98

Entry under test: CC(CC1CC1)N[C@H]1CCCC[C@@H]1Cc1ccc2c(c1)CN(C1CCC(=O)NC1=O)C2=O (single isomer, unassigned) . Its IKZF2 Dmax was 96

CC(N[C@H]1CCCC[C@@H]1Cc1ccc2c(c1)CN(C1CCC(=O)NC1=O)C2=O)C1CCC1 (stereo partly shown) [Example 218] has a reported IKZF2 Dmax of 95

The compound listed as CC1(C)CCCC(N[C@H]2CCCC[C@@H]2Cc2ccc3c(c2)CN(C2CCC(=O)NC2=O)C3=O)C1 (single isomer, unassigned) shows IKZF2 Dmax equal to 97
